- System: HIV protease
- Test Protocol: Therapeutic index for HIV protease was determined
- Measurement Setup: read-out: Therapeutic index
Threshold-based label: selectivity ratio under 20 gives True, selectivity ratio not under 20 gives False.

For this molecule, is selectivity ratio lower than 20? Cc1cc(SC2=C(O)OC(CCc3ccc(O)cc3)(C(C)C)CC2=O)c(C(C)(C)C)cc1NC(=O)c1ccncc1 (stereo not drawn)
False

For this molecule, is selectivity ratio lower than 20? Cc1cc(SC2=C(O)OC(CCc3ccc(O)cc3)(C(C)C)CC2=O)c(C(C)(C)C)cc1NC(=O)c1ccccn1 (stereo not drawn)
False

For this molecule, is selectivity ratio lower than 20? Cc1cc(SC2=C(O)OC(CCc3ccc(O)cc3)(CC(C)C)CC2=O)c(C(C)(C)C)cc1N (stereo not drawn)
True

For this molecule, is selectivity ratio lower than 20? CC(=O)Nc1cc(C(C)(C)C)c(SC2=C(O)OC(CCc3ccc(O)cc3)(C(C)C)CC2=O)cc1C (stereo not drawn)
False

For this molecule, is selectivity ratio lower than 20? Cc1cc(SC2=C(O)OC(CCc3ccc(O)cc3)(C(C)C)CC2=O)c(C(C)(C)C)cc1NC(=O)c1ccccc1 (stereo not drawn)
True

For this molecule, is selectivity ratio lower than 20? Cc1cc(SC2=C(O)OC(CCc3ccc(O)cc3)(C(C)C)CC2=O)c(C(C)(C)C)cc1N(C)C (stereo not drawn)
False

For this molecule, is selectivity ratio lower than 20? Cc1cc(SC2=C(O)OC(CCc3ccccc3)(C(C)C)CC2=O)c(C(C)(C)C)cc1NC(=O)c1ccc(C#N)cc1 (stereo not drawn)
True

For this molecule, is selectivity ratio lower than 20? Cc1cc(SC2=C(O)OC(CCc3ccc(O)cc3)(C(C)C)CC2=O)c(C(C)(C)C)cc1NC(=O)c1ccc(C#N)cc1 (stereo not drawn)
True

---

- Test Protocol: Area under the curve for the compound was obtained when tested in mouse
- Format: ADME, organism-based
- Measurement Setup: in vivo
Metric: AUC

Briefly, AUC measured for Cc1cc(SC2=C(O)O[C@](CCc3ccc(O)cc3)(C(C)C)CC2=O)c(C(C)(C)C)cc1N (stereo in doubt; 15S) : 30 µM·h

---

- Assayed System: Human immunodeficiency virus type 1 protease (Human immunodeficiency virus 1)
- Test Protocol: In vitro binding affinity against HIV protease at pH 6.2 was determined
Metric: pKi
Interpret pKi as the negative base-10 log of the concentration measured in mol/L.

Briefly, pKi measured for Cc1cc(SC2=C(O)O[C@](CCc3ccc(O)cc3)(C(C)C)CC2=O)c(C(C)(C)C)cc1CO : 10.05

---

- Assayed System: Human immunodeficiency virus type 1 protease (Human immunodeficiency virus 1, UniProt Q72874)
- Test Protocol: In vitro binding affinity against HIV protease at pH 6.2.
Class field: derived from IC50; ranges category 1 (below 5 nM), category 2 (5 nM to below 10 nM), category 3 (10 nM or more)

For Cc1cc(SC2=C(O)OC(CCc3ccc(O)cc3)(CC(C)C)CC2=O)c(C(C)(C)C)cc1N (configuration not stated) , which IC50 bin applies?
category 3

For CC(=O)Nc1cc(C(C)(C)C)c(SC2=C(O)OC(CCc3ccccc3)(C(C)C)CC2=O)cc1C (configuration not stated) , which IC50 bin applies?
category 1

For Cc1cc(SC2=C(O)OC(CCc3ccc(O)cc3)(C3CCCCC3)CC2=O)c(C(C)(C)C)cc1N (configuration not stated) , which IC50 bin applies?
category 3

For CCCCCC1(CCc2ccc(O)cc2)CC(=O)C(Sc2cc(C)c(N)cc2C(C)(C)C)=C(O)O1 (configuration not stated) , which IC50 bin applies?
category 2

For Cc1cc(SC2=C(O)OC(CCc3ccc(O)cc3)(C3CC3)CC2=O)c(C(C)(C)C)cc1N (configuration not stated) , which IC50 bin applies?
category 1

For Cc1cc(SC2=C(O)OC(CCc3ccc(O)cc3)(C(C)C)CC2=O)c(C(C)(C)C)cc1N(C)C (configuration not stated) , which IC50 bin applies?
category 3

For Cc1cc(SC2=C(O)OC(CCc3ccc(O)cc3)(C(C)C)CC2=O)c(C(C)(C)C)cc1NC(=O)c1ccccn1 (configuration not stated) , which IC50 bin applies?
category 2

For Cc1cc(SC2=C(O)OC(CCc3ccc(O)cc3)(C3CCCC3)CC2=O)c(C(C)(C)C)cc1N (configuration not stated) , which IC50 bin applies?
category 2

For Cc1cc(SC2=C(O)OC(CCc3ccccc3)(C(C)C)CC2=O)c(C(C)(C)C)cc1N (configuration not stated) , which IC50 bin applies?
category 1

For Cc1cc(SC2=C(O)OC(CCc3ccc(O)cc3)(C(C)C)CC2=O)c(C(C)(C)C)cc1NC(=O)OC(C)(C)C (configuration not stated) , which IC50 bin applies?
category 3

For CCCCC1(CCc2ccc(O)cc2)CC(=O)C(Sc2cc(C)c(N)cc2C(C)(C)C)=C(O)O1 (configuration not stated) , which IC50 bin applies?
category 1

For Cc1cc(SC2=C(O)OC(CCc3ccc(O)cc3)(C(C)C)CC2=O)c(C(C)(C)C)cc1NC(=O)c1ccccc1 (configuration not stated) , which IC50 bin applies?
category 3

For Cc1cc(SC2=C(O)OC(CCc3ccc(O)cc3)(C(C)C)CC2=O)c(C(C)(C)C)cc1N (configuration not stated) , which IC50 bin applies?
category 1

For Cc1cc(SC2=C(O)OC(CCc3ccc(N)cc3)(C(C)C)CC2=O)c(C(C)(C)C)cc1N (configuration not stated) , which IC50 bin applies?
category 2

For Cc1cc(SC2=C(O)OC(CCc3ccccc3)(C(C)C)CC2=O)c(C(C)(C)C)cc1NC(=O)c1ccc(C#N)cc1 (configuration not stated) , which IC50 bin applies?
category 3

---

- Test Protocol: Bioavailability was obtained by the comparison of AUC of subcutaneous dosing and AUC of oral dosing in mouse at dose 25 mg/kg
- Type: ADME, organism-based
- Measurement Setup: in vivo, read-out: Bioavailabiility
Metric: bioavailability
For clarity, give the value followed by its unit.

Briefly, bioavailability measured for Cc1cc(SC2=C(O)OC(CCc3ccc(O)cc3)(C(C)C)CC2=O)c(C(C)(C)C)cc1N (stereo unspecified) : 59.2%

---

- Assayed System: UniProt:Q72874
- Test Protocol: Binding affinity towards HIV protease was determined
Metric: Ki (nM)
Respond numerically; units are nM and should not be typed.

Response field Ki (UniProt:Q72874) for item Cc1cc(SC2=C(O)O[C@](CCc3ccc(O)cc3)(C(C)C)CC2=O)c(C(C)(C)C)cc1N (stereo in doubt; 15S) : 0.07

Response field Ki (UniProt:Q72874) for item Cc1cc(SC2=C(O)O[C@](CCc3ccc(O)cc3)(C(C)C)CC2=O)c(C(C)(C)C)cc1N (stereo in doubt; 15R) : 13

Response field Ki (UniProt:Q72874) for item Cc1cc(SC2=C(O)OC(CCc3ccc(O)cc3)(C(C)C)CC2=O)c(C(C)(C)C)cc1N (stereo not drawn) : 0.67

---

Exercise: for every item that follows, state its recorded selectivity ratio.
- Test system: HIV protease
- Test Protocol: Therapeutic index for HIV protease was determined
- Measurement Setup: read-out: Therapeutic index
Lab note: jot down the number only; don't add units.

Response field selectivity ratio (HIV protease) for item Cc1cc(SC2=C(O)OC(CCc3ccccc3)(C(C)C)CC2=O)c(C(C)(C)C)cc1N (configuration not stated) : 36

Response field selectivity ratio (HIV protease) for item CCCCC1(CCc2ccc(O)cc2)CC(=O)C(Sc2cc(C)c(N)cc2C(C)(C)C)=C(O)O1 (configuration not stated) : 7

Response field selectivity ratio (HIV protease) for item CC(=O)Nc1cc(C(C)(C)C)c(SC2=C(O)OC(CCc3ccccc3)(C(C)C)CC2=O)cc1C (configuration not stated) : 46

Response field selectivity ratio (HIV protease) for item Cc1cc(SC2=C(O)OC(CCc3ccc(O)cc3)(C(C)C)CC2=O)c(C(C)(C)C)cc1NC(=O)CC(C)(C)C (configuration not stated) : 4

Response field selectivity ratio (HIV protease) for item Cc1cc(SC2=C(O)OC(CCc3ccc(O)cc3)(C3CC3)CC2=O)c(C(C)(C)C)cc1N (configuration not stated) : 20

Response field selectivity ratio (HIV protease) for item CCCC1(CCc2ccc(O)cc2)CC(=O)C(Sc2cc(C)c(N)cc2C(C)(C)C)=C(O)O1 (configuration not stated) : 15

Response field selectivity ratio (HIV protease) for item Cc1cc(SC2=C(O)OC(CCc3ccc(O)cc3)(C(C)C)CC2=O)c(C(C)(C)C)cc1NC(=O)c1ccc(C(F)(F)F)cc1 (configuration not stated) : 5

Response field selectivity ratio (HIV protease) for item Cc1cc(SC2=C(O)OC(C)(CCc3ccc(O)cc3)CC2=O)c(C(C)(C)C)cc1N (configuration not stated) : 7

Response field selectivity ratio (HIV protease) for item Cc1cc(SC2=C(O)OC(CCc3ccc(N)cc3)(C(C)C)CC2=O)c(C(C)(C)C)cc1N (configuration not stated) : 33

Response field selectivity ratio (HIV protease) for item Cc1cc(SC2=C(O)OC(CCc3ccc(O)cc3)(C(C)C)CC2=O)c(C(C)(C)C)cc1N (configuration not stated) : 92

Response field selectivity ratio (HIV protease) for item Cc1cc(SC2=C(O)OC(CCc3ccc(O)cc3)(C3CCCC3)CC2=O)c(C(C)(C)C)cc1N (configuration not stated) : 22

Response field selectivity ratio (HIV protease) for item Cc1cc(SC2=C(O)OC(CCc3ccc(O)cc3)(C3CCCCC3)CC2=O)c(C(C)(C)C)cc1N (configuration not stated) : 7

Response field selectivity ratio (HIV protease) for item Cc1cc(SC2=C(O)OC(CCc3ccc(O)cc3)(C(C)C)CC2=O)c(C(C)(C)C)cc1NC(=O)c1cccc(C#N)c1 (configuration not stated) : 5

Hey, just so you know, these numbers are from ChEMBL document CHEMBL1132164.
